growth values, listed per item
Tested on: TK-10 renal
Experiment: NCI-60 one-dose screen, 48 h (100 = growth as untreated, 0 = no growth, -100 = all killed)
Details: 10 µM unless noted
This is part of a sample that, as a whole, favours compounds with a hit. Of some 83,000 tested, about 20% had one in any assay.
result.type: growth (%)

CCOP(=O)(Cc1ccc(C#N)cc1)OCC : 93.4
CCCOC(=O)N[C@H]1CCc2c(Br)c(OC)c(OC)c(OC)c2-c2ccc(SC)c(=O)cc21 : 43
Cc1cc(N(CCCl)CCCl)ccc1/C=N\NC(=O)c1ccncc1 : 93.1
COc1ccc2c(c1)c(-c1nc(-c3c[nH]c4ncccc34)cs1)cn2CCN1CCOCC1 : 42.3
C[C@]12CCc3sc(-c4cccc(F)c4)nc3C1=CC[C@@H]1[C@@H]2CC[C@]2(C)C(=O)CC[C@@H]12 : 24
CC(=O)O[C@H]1CC[C@@]2(C)C(=CC[C@H]3[C@@H]4C[C@@H](N5CC5)[C@H](C(C)=O)[C@@]4(C)CC[C@@H]32)C1 : 105
COc1cc([N+](=O)[O-])c2nc(C)ccc2c1[N+](=O)[O-] : 122
CC[C@H](C)[C@H](NC(=O)[C@H]1CCCCN1C)C(=O)N(C)[C@H](C[C@@H](OC(C)=O)c1nc(C(=O)NC23CC(C(=O)OC)(C2)C3)cs1)C(C)C : 15.7
COC(=O)C1CCC(NC(=O)c2csc([C@@H](C[C@H](C(C)C)N(C)C(=O)[C@@H](NC(=O)[C@H]3CCCCN3C)C(C)C)OC(C)=O)n2)CC1 (some centres not stated) : 63.1
CC12CCC(O)CC1=CCC1C2CCC2(C)C(O)CCC12 (configuration not stated) : 105
[Au+].[N-]=C=O.c1ccc(CN2[CH-]N(Cc3ccccc3)C(c3ccccc3)=C2c2ccccc2)cc1 : 104
CC(=O)O[C@H](C[C@H](C(C)C)N(C)C(=O)[C@@H](NC(=O)[C@H]1CCCCN1C)C(C)C)c1cccc(C(=O)N[C@@H](Cc2ccccc2)C[C@H](C)C(=O)O)n1 : 69
COc1ccc(S(=O)(=O)N(Cc2ccc3c(c2)C=CC(C)(C)O3)c2ccccc2)cc1OC : 102
O=C(Nc1ccc([N+](=O)[O-])cc1)C(Cl)(Cl)Cl : 113
Cc1cc(N(CCCl)CCCl)ccc1C=Nc1ccc(-c2csc(Cc3ccccc3)n2)cc1 : 84.5
CC[C@H](C)[C@H](NC(=O)[C@H]1CCCCN1C)C(=O)N(C)[C@H](CCc1nc(C(=O)N[C@@H](Cc2ccccc2)C[C@H](C)C(=O)OC)cs1)C(C)C : 54.3
ClCCN(CCCl)c1ccc(/C=N\N=C\c2ccc(N(CCCl)CCCl)cc2)cc1 : 47.2
